- Assay: Luminescence activity assay of purified Gaussia luciferase mutants on fluoro-coelenterazine
- Format: biochemical
- Parameters: key: ratio of mutant luminescence intensity to wild-type Gaussia luciferase
- Stated Conditions: Substrate f-CTZ (Table 16)
Activity of mutant relative to wild-type Gaussia luciferase without the signal peptide: recorded values
Please state the value as a number alone, without comment.

Write down Activity of mutant relative to wild-type Gaussia luciferase without the signal peptide measured for item F26R N27Y V29E A30G A32D S33R A36G T37M L40P: Gaussia luciferase mutant (protein, SIGNAL (1)..(17), Gaussia luciferase mutant) MGVKVLFALICIAVAEAKPTENNEDRYIEGVDRNFGMTDPDADRGKLPGKKLPLEVLKEMEANARKAGCTRGCLICLSHIKCTPKMKKFIPGRCHTYEGDKESAQGGIGEAIVDIPEIPGFKDLEPMEQFIAQVDLCVDCTTGCLKGLANVQCSDLLKKWLPQRCATFASKIQGQVDKIKGAGGD
0.172

Write down Activity of mutant relative to wild-type Gaussia luciferase without the signal peptide measured for item H79K P84K E102K S103I V138E: Gaussia luciferase mutant (protein, SIGNAL (1)..(17), Gaussia luciferase mutant) MGVKVLFALICIAVAEAKPTENNEDFNIVAVASNFATTDLDADRGKLPGKKLPLEVLKEMEANARKAGCTRGCLICLSKIKCTKKMKKFIPGRCHTYEGDKKIAQGGIGEAIVDIPEIPGFKDLEPMEQFIAQVDLCEDCTTGCLKGLANVQCSDLLKKWLPQRCATFASKIQGQVDKIKGAGGD
0.479

Write down Activity of mutant relative to wild-type Gaussia luciferase without the signal peptide measured for item K66N E102D S103T E110G L124M V138E: Gaussia luciferase mutant (protein, SIGNAL (1)..(17), Gaussia luciferase mutant) MGVKVLFALICIAVAEAKPTENNEDFNIVAVASNFATTDLDADRGKLPGKKLPLEVLKEMEANARNAGCTRGCLICLSHIKCTPKMKKFIPGRCHTYEGDKDTAQGGIGGAIVDIPEIPGFKDMEPMEQFIAQVDLCEDCTTGCLKGLANVQCSDLLKKWLPQRCATFASKIQGQVDKIKGAGGD
0.794

Next molecule, Activity of mutant relative to wild-type Gaussia luciferase without the signal peptide to be filled in.
Write down Activity of mutant relative to wild-type Gaussia luciferase without the signal peptide measured for item K66N H79K P84K E102K S103I E110P L124M: Gaussia luciferase mutant (protein, SIGNAL (1)..(17), Gaussia luciferase mutant) MGVKVLFALICIAVAEAKPTENNEDFNIVAVASNFATTDLDADRGKLPGKKLPLEVLKEMEANARNAGCTRGCLICLSKIKCTKKMKKFIPGRCHTYEGDKKIAQGGIGPAIVDIPEIPGFKDMEPMEQFIAQVDLCVDCTTGCLKGLANVQCSDLLKKWLPQRCATFASKIQGQVDKIKGAGGD
1.728
